# target: Neuraminidase Flu A
# test.method.notes: Neuraminidase inhibition in vitro, Flu A
# Format: biochemical, influenza virus A
measured.metric: IC50
For clarity, give the value followed by its unit.

# molecule, result
records = [
    ("CCCCN(C)[C@@H]1C=C(C(=O)O)C[C@H](N)[C@H]1NC(C)=O [Compound 5b]", "180 nM"),
    ("CCCN(CC1CC1)[C@@H]1C=C(C(=O)O)C[C@H](N)[C@H]1NC(C)=O [Compound 5j]", "50 nM"),
    ("CCC(CC)N[C@@H]1C=C(C(=O)O)C[C@H](N)[C@H]1NC(C)=O [Compound 12a]", "11.5 nM"),
]

# value lookup — system Neuraminidase Flu A, readout IC50, item CC(=O)N[C@H]1[C@H](N(C)C2CCCCC2)C=C(C(=O)O)C[C@@H]1N [Compound 5f] 200 nM

# value lookup — system Neuraminidase Flu A, readout IC50, item CC(=O)N[C@H]1[C@H](N2CCCCC2)C=C(C(=O)O)C[C@@H]1N [Compound 5l] 30 nM

# value lookup — system Neuraminidase Flu A, readout IC50, item CCCCN(CC)[C@@H]1C=C(C(=O)O)C[C@H](N)[C@H]1NC(C)=O [Compound 5h] 85 nM

# value lookup — system Neuraminidase Flu A, readout IC50, item CCC(CC)N(C)[C@@H]1C=C(C(=O)O)C[C@H](N)[C@H]1NC(C)=O [Compound 5c] 6 nM

# value lookup — system Neuraminidase Flu A, readout IC50, item CC(=O)N[C@H]1[C@H](N2CCOCC2)C=C(C(=O)O)C[C@@H]1N [Compound 5m] 200 nM

# value lookup — system Neuraminidase Flu A, readout IC50, item CC(=O)N[C@H]1[C@H](N2CCCC2)C=C(C(=O)O)C[C@@H]1N [Compound 5k] 400 nM

# value lookup — system Neuraminidase Flu A, readout IC50, item CC(=O)N[C@H]1[C@H](N(C)CCc2ccccc2)C=C(C(=O)O)C[C@@H]1N [Compound 5e] 100 nM

Taken from patent US6111132A.
